tested on: 50S ribosome; experiment: SPR binding studies; parameters: species or system S. aureus; conditions: 4 °C, PBST pH 7.4, compound immobilised, 50S ribosome 200-3200 nM
Label True when Ka (association rate constant) >= 1000 M⁻¹ s⁻¹; otherwise False.

| Compound | Group Label |
| --- | --- |
| C=C[C@]1(C)C[C@@H](OC(=O)Cn2cc(CN3CCN(c4ccccc4C)CC3)nn2)[C@]2(C)[C@H](C)CC[C@]3(CCC(=O)[C@H]32)[C@@H](C)[C@@H]1O | False |
| C=C[C@]1(C)C[C@@H](OC(=O)Cn2cc(CN3CCN(c4cccc(C)c4)CC3)nn2)[C@]2(C)[C@H](C)CC[C@]3(CCC(=O)[C@H]32)[C@@H](C)[C@@H]1O | True |
| C=C[C@]1(C)C[C@@H](OC(=O)CSCCN(CC)CC)[C@]2(C)[C@H](C)CC[C@]3(CCC(=O)[C@H]32)[C@@H](C)[C@@H]1O [Tiamulin, tiamulin, reference compound] | False |
| C=C[C@]1(C)C[C@@H](OC(=O)Cn2cc(CN3CCN(c4ccccc4[N+](=O)[O-])CC3)nn2)[C@]2(C)[C@H](C)CC[C@]3(CCC(=O)[C@H]32)[C@@H](C)[C@@H]1O | False |
| C=C[C@]1(C)C[C@@H](OC(=O)Cn2cc(CN3CCN(c4ccc([N+](=O)[O-])cc4)CC3)nn2)[C@]2(C)[C@H](C)CC[C@]3(CCC(=O)[C@H]32)[C@@H](C)[C@@H]1O | True |
